# assay.details: Metabolic stability in mouse liver microsomes
# Format: in vitro ADME
# condition.notes: mouse, liver microsomes
Criterion: half-life strictly under 20 min. Met: condition met. Not met: condition not met.

The examples below pair each entry with its known result.
# item.smiles, category.label
rows = [
    ("Cc1c(Cc2ccccc2)c(=O)n2c([nH]c3ccccc32)c1C#N", "condition met"),
    ("COc1cccc(Cc2c(C)c(C#N)c3[nH]c4ccccc4n3c2=O)c1", "condition met"),
    ("Cc1c(Cc2cccc(C(F)(F)F)c2)c(=O)n2c([nH]c3ccccc32)c1C#N", "condition met"),
]

Answer whether the compound Cc1c(C)c(=O)n2c([nH]c3ccccc32)c1C#N has half-life strictly less than 20 min
condition not met

// query: Cc1c(Cc2ccc(Cl)cc2)c(=O)n2c([nH]c3ccccc32)c1C#N
condition met
